Attribution: patent US8901305B2

Target: AAK1 (full length human) with AP2M1 in HEK293F cells (Homo sapiens, UniProt Q2M2I8)
Construct: expressed in transfected cells; host or cells: HEK293F
Sequence (Q2M2I8 whole entry): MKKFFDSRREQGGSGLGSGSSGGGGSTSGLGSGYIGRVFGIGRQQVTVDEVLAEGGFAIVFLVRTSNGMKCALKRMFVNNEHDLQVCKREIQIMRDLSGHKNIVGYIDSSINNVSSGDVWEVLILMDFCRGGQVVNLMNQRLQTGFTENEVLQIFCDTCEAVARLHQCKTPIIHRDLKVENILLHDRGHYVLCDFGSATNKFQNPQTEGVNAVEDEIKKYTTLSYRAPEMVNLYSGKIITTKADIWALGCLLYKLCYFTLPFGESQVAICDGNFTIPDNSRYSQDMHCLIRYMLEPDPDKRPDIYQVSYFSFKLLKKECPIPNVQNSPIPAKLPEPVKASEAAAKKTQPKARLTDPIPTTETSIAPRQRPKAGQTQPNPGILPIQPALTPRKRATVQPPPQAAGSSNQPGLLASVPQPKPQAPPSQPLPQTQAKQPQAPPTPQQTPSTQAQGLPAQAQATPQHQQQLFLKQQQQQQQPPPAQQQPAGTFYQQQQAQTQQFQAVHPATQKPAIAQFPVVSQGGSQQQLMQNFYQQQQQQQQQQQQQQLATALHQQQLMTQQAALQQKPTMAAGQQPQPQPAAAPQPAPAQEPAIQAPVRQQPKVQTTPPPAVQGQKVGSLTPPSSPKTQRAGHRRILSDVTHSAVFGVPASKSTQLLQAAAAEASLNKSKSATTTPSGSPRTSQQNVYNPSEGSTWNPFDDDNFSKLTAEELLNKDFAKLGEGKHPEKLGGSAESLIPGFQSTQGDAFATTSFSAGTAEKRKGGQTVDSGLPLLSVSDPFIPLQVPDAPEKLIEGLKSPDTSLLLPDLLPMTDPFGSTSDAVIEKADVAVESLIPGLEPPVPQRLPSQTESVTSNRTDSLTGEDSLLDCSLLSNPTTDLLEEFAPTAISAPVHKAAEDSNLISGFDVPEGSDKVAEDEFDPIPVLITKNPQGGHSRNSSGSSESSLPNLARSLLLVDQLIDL
Test: HEK281 cell-based assay (phospho-mu2 Western blot in transfected HEK293F cells)
Conditions: 3 hours, inhibition of mu2 phosphorylation
For each of the compounds below, state its IC50.
Value and unit, in that order.

With AAK1 (full length human) with AP2M1 in HEK293F cells (Homo sapiens, UniProt Q2M2I8) as the test system, provide measured IC50 for this compound: "C=CCn1c(=O)c2cnccc2c2ccc(OC[C@@H](N)CC(C)C)cc21" 24 nM

With AAK1 (full length human) with AP2M1 in HEK293F cells (Homo sapiens, UniProt Q2M2I8) as the test system, provide measured IC50 for this compound: "CC(C)C[C@H](N)COc1cc2c(cc1-c1cnco1)c1ccncc1c(=O)n2C" 1.8 nM

With AAK1 (full length human) with AP2M1 in HEK293F cells (Homo sapiens, UniProt Q2M2I8) as the test system, provide measured IC50 for this compound: "Cc1nccc2c1c(=O)[nH]c1cc(OC[C@@H](N)CC(C)C)c(F)cc12" 5.2 nM

With AAK1 (full length human) with AP2M1 in HEK293F cells (Homo sapiens, UniProt Q2M2I8) as the test system, provide measured IC50 for this compound: "Cc1nccc2c1c(=O)n(C)c1cc(OC[C@@H](N)CC(C)C)c(C(F)F)cc21" 0.3 nM

With AAK1 (full length human) with AP2M1 in HEK293F cells (Homo sapiens, UniProt Q2M2I8) as the test system, provide measured IC50 for this compound: "CCc1cc2c3ccncc3c(=O)n(C)c2cc1OC[C@@H](N)CC(C)C" 3.1 nM

With AAK1 (full length human) with AP2M1 in HEK293F cells (Homo sapiens, UniProt Q2M2I8) as the test system, provide measured IC50 for this compound: "CC(C)C[C@H](N)COc1cc2c(cc1F)c1ccnc(N)c1c(=O)n2C" 2.4 nM

With AAK1 (full length human) with AP2M1 in HEK293F cells (Homo sapiens, UniProt Q2M2I8) as the test system, provide measured IC50 for this compound: "CC(C)C[C@H](N)COc1cc2c(cc1C1CC1)c1ccncc1c(=O)n2C" 2.1 nM

With AAK1 (full length human) with AP2M1 in HEK293F cells (Homo sapiens, UniProt Q2M2I8) as the test system, provide measured IC50 for this compound: "CC(C)C[C@H](N)COc1ccc2c3ccncc3c(=O)n(C)c2c1" 7 nM

With AAK1 (full length human) with AP2M1 in HEK293F cells (Homo sapiens, UniProt Q2M2I8) as the test system, provide measured IC50 for this compound: "CC(C)C[C@H](N)COc1c(Cl)cc2c3ccncc3c(=O)n(C)c2c1Cl" 29 nM

With AAK1 (full length human) with AP2M1 in HEK293F cells (Homo sapiens, UniProt Q2M2I8) as the test system, provide measured IC50 for this compound: "Cc1nccc2c1c(=O)[nH]c1cc(OC[C@@H](N)CC(C)C)c(Br)cc12" 0.6 nM

With AAK1 (full length human) with AP2M1 in HEK293F cells (Homo sapiens, UniProt Q2M2I8) as the test system, provide measured IC50 for this compound: "CC(C)C[C@H](N)COc1cc2c(cc1Cl)c1ccncc1c(=O)n2C" 5 nM

With AAK1 (full length human) with AP2M1 in HEK293F cells (Homo sapiens, UniProt Q2M2I8) as the test system, provide measured IC50 for this compound: "CC(C)C[C@H](N)COc1cc2c(cc1C#N)c1ccncc1c(=O)n2C" 2.5 nM

With AAK1 (full length human) with AP2M1 in HEK293F cells (Homo sapiens, UniProt Q2M2I8) as the test system, provide measured IC50 for this compound: "Cc1cc2c3ccncc3c(=O)n(C)c2cc1OC[C@@H](N)CC(C)C" 2.4 nM

With AAK1 (full length human) with AP2M1 in HEK293F cells (Homo sapiens, UniProt Q2M2I8) as the test system, provide measured IC50 for this compound: "CC(C)C[C@H](N)COc1cc2c(cc1Br)c1ccncc1c(=O)n2C" 1.6 nM

With AAK1 (full length human) with AP2M1 in HEK293F cells (Homo sapiens, UniProt Q2M2I8) as the test system, provide measured IC50 for this compound: "Cc1nccc2c1c(=O)n(C)c1cc(OC[C@@H](N)CC(C)C)c(C#N)cc21" 0.6 nM

With AAK1 (full length human) with AP2M1 in HEK293F cells (Homo sapiens, UniProt Q2M2I8) as the test system, provide measured IC50 for this compound: Cc1nccc2c1c(=O)n(C)c1cc(OC(C)[C@@H](N)CC(C)C)ccc21 (mixture of isomers) 11 nM

With AAK1 (full length human) with AP2M1 in HEK293F cells (Homo sapiens, UniProt Q2M2I8) as the test system, provide measured IC50 for this compound: Cc1nccc2c1c(=O)n(C)c1cc(OCC(C)(N)CC(C)C)c(Cl)cc21 (stereo not drawn) 3.3 nM

With AAK1 (full length human) with AP2M1 in HEK293F cells (Homo sapiens, UniProt Q2M2I8) as the test system, provide measured IC50 for this compound: "CC(C)C[C@H](N)COc1ccc2c(c1)[nH]c(=O)c1cnccc12" 14 nM
